Tested on: micropatterned human pluripotent stem cell (μP-hPSC) colonies
RUN DESCRIPTION: μP-hPSC model-based quantitative morphometric assay (disruption of annular mesoendoderm pattern)
Assay type: cell-based
PARTICULARS: teratogenic if DC < IC25,H9
RECORDED METRIC: Teratogenicity classification in the μP-hPSC model

O=C1CCC(N2C(=O)c3ccccc3C2=O)C(=O)N1 (stereo not shown) [Thalidomide]; Teratogenic
CC1=C(/C=C/C(C)=C/C=C/C(C)=C/C(=O)O)C(C)(C)CCC1 [RA, Retinoic acid]; Teratogenic
CC(C)(S)[C@@H](N)C(=O)O [D-penicillamine]; Teratogenic

---

IC25H9: recorded values
Test system: H9 human embryonic stem cells
RUN DESCRIPTION: Cytotoxicity assay (MTS) in H9 cells
Format: cell-based
PARTICULARS: 25% inhibitory concentration, H9 cells, 3 days, MTS viability
Express the result in µg/mL but write the number alone.

CC(C)(S)[C@@H](N)C(=O)O [D-penicillamine]; 278

# input for lookup
Form: molecule = CC1(C)S[C@@H]2[C@H](NC(=O)Cc3ccccc3)C(=O)N2[C@H]1C(=O)O [Penicillin G] ; IC25H9 = 787

---

Tested on: micropatterned human pluripotent stem cell (μP-hPSC) colonies
RUN DESCRIPTION: μP-hPSC model-based quantitative morphometric assay (disruption of annular mesoendoderm pattern)
Format: cell-based
PARTICULARS: DC in μP-hPSC model vs Cmax in human plasma
RECORDED METRIC: DC value compared with known Cmax

CC1=C(/C=C/C(C)=C/C=C/C(C)=C/C(=O)O)C(C)(C)CCC1 [RA, Retinoic acid]; lower than or equal to
CC(C)(S)[C@@H](N)C(=O)O [D-penicillamine]; lower than or equal to
CCCC(CCC)C(=O)O [VPA, Valproic acid]; lower than or equal to

---

DC (disruption concentration): recorded values
Tested on: micropatterned human pluripotent stem cell (μP-hPSC) colonies
RUN DESCRIPTION: μP-hPSC model-based quantitative morphometric assay (disruption of annular mesoendoderm pattern)
Assay type: cell-based
PARTICULARS: lowest concentration which morphologically disrupts the mesoendoderm pattern vs non-treated control; 3-day mesoendoderm induction
Express the result in ng/mL but write the number alone.

CC1=C(/C=C/C(C)=C/C=C/C(C)=C/C(=O)O)C(C)(C)CCC1 [RA, Retinoic acid]; 0.36

# input for lookup
Short answer on micropatterned human pluripotent stem cell (μP-hPSC) colonies for CC(C)(S)[C@@H](N)C(=O)O [D-penicillamine] , DC (disruption concentration): 200000

---

System: H9 human embryonic stem cells
RUN DESCRIPTION: Cytotoxicity assay (MTS) in H9 cells
Assay type: cell-based
PARTICULARS: 25% inhibitory concentration, H9 cells, 3 days, MTS viability
IC25H9: recorded values

Here's what some known entries look like.
O=C1CCC(N2C(=O)c3ccccc3C2=O)C(=O)N1 (stereo not drawn) [Thalidomide]; >1000 µM
CCCC(CCC)C(=O)O; 130 µM

# input for lookup
Form: compound = `CC1=C(/C=C/C(C)=C/C=C/C(C)=C/C(=O)O)C(C)(C)CCC1` ; IC25H9 = >2 µg/mL
